# tested target: SARM1 (50-724) (Homo sapiens, UniProt Q6SZW1)
# Sequence (Q6SZW1 50-724): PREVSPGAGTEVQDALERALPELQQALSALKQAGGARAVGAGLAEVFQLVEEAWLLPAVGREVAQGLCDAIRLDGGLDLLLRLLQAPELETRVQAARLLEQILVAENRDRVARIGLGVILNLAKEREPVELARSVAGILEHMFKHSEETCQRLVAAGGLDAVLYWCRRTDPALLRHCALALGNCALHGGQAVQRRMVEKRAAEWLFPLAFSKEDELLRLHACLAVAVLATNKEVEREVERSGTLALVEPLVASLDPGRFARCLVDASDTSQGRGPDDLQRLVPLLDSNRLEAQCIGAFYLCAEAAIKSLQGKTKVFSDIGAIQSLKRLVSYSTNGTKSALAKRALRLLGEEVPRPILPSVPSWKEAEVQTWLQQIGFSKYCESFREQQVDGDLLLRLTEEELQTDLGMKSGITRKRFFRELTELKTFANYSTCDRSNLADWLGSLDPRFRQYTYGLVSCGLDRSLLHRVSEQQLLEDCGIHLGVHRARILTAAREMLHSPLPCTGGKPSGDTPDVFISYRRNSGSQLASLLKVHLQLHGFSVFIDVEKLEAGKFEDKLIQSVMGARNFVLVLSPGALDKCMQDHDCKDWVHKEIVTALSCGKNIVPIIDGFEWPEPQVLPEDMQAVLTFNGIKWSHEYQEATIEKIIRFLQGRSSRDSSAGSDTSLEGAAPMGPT
# assay: biochemical
pIC50: −log10 of the molar value.
Each entry below lists one item and its recorded pIC50 value.

Request: Record request: pIC50 value, item CC(Nc1ccc2ccccc2c1)c1cccc(Cl)c1Cl (stereo not shown) [Example 13A]
Result: < 6.00

Request: Record request: pIC50 value, item CC1(C)C(=O)N(CCC(N)=O)c2cc(NS(=O)(=O)c3cccc(Cl)c3Cl)ccc21 [Compound 279]
Result: > 7.00

Request: Record request: pIC50 value, item Cc1n[nH]c(=O)c2cc(NC(C)c3cncc(Cl)c3Cl)ccc12 (racemic) [Compound 275]
Result: > 7.00

Below: the item to evaluate.
Request: Record request: pIC50 value, item Cc1c2ccc(NC(C)c3snc(Cl)c3Cl)cc2nn1CC(N)=O (racemic) [Compound 341]
Result: > 7.00

Data provenance is patent US20250320184A1.
